These entries and their values trace back to a melting point compilation (Tetko et al.; mined from patent text by program, amines drawn as free bases though some values may be those of a salt).

In this section we review reported melting point values for a set of molecules.
Form entry: value (°C) — number only.

Past entries and their recorded results:
molecule	melting point / °C
CCC1(COCCCCCCOc2ccc(C(=O)O)cc2)COC1	58.5
N#Cc1cnn(-c2ccc(OC(F)(F)F)cc2Cl)c1Br	83
C#CCn1cc(CO)cc1C(=O)OC	77

Form field melting point, entry O=C(O)CC1(O)CCC(N2CCC(Nc3ccncc3)CC2)CC1 (stereo not given) : 261

The recorded melting point for NC(=O)c1ccccc1C(=O)N(C[C@H]1CN(c2ccc(N3CCOCC3=O)cc2)C(=O)O1)C[C@H]1CN(c2ccc(N3CCOCC3=O)cc2)C(=O)O1 is 204

Reported melting point for C#Cc1ccc(Nc2c(C(=O)NOCCO)ccc(F)c2F)c(F)c1 was 162

====

valueType: melting point

Example entries and their recorded answers appear below.
molecule	valueType	recordedValue
Oc1ccc(-c2ccc3ccccc3c2)nc1	melting point	168 to 169 °C
C=CC(=O)OCC(=O)OCCCCCCOC(=O)COC(=O)C=C	melting point	66 °C
CCCCCCCCCCC[C@@H](O)CC(=O)O	melting point	70.6 to 71.4 °C
CCN(CC)c1cccc2nc3n(c12)C=CCCN3c1ccc(Cl)cc1Cl	melting point	105 to 106 °C
O=C(C1CCCN1C(=O)CCCN1C(=O)c2ccccc2C1=O)N1CCCC1 (stereo unspecified)	melting point	148 to 149 °C
O=C(O)c1cccc(NC(=O)C(CS)Cc2ccc(F)cc2)c1 (stereo unspecified)	melting point	180 to 182 °C

Reported melting point of Cc1cc(-c2noc(C(F)(F)F)n2)cc(C)c1OCCCc1ccc(=O)[nH]c1 : 128 to 130 °C

Lab book: melting point of Cn1c(=O)c2c(nc(N3CCC(N)C3)n2Cc2ccccc2C#N)n(C)c1=O (stereo unspecified) noted as 186 to 189 °C

Entry under test: CCOC(=O)c1c(C(=O)Nc2ccc(Cl)cc2C)cccc1[N+](=O)[O-] . Its melting point was 164 to 165 °C

Recorded melting point (molecule CCOC(=O)c1cnc(O)nc1-c1ccccc1 ): > 260 °C

Per the records, this molecule ( CC1=CC(C)(C)OC1=O ) has melting point equal to 54 to 55 °C

====

Measured melting point, listed per entry.

molecule	recordedValue
Cc1c(-c2ccccc2)oc2c(OCCN=[N+]=[N-])cccc2c1=O	119 to 120 °C
CN1CCN(c2nc3cccc4c3n2CCC4)CC1	112 to 113 °C
CC1(C)CC(OC(=O)N=NC(=O)OC2CC(C)(C)N(OC3CCCCC3)C(C)(C)C2)CC(C)(C)N1OC1CCCCC1	189 to 191 °C
CC(=O)NC[C@@H]1C[C@H]1c1cccc2nn(C)c(F)c12 (relative stereo)	109 to 111 °C

Form: molecule = COC(=O)c1ccc(Oc2cc3c(cc2C)C(C)(C)CCC3(C)C)cc1 ; melting point = 133 to 135 °C

====

melting point for assorted molecules

Would you please look over these solved cases?
molecule	melting point
CC=C(C)c1ccc(-c2ccccc2F)cc1	83 to 85 °C
CCCCNS(=O)(=O)c1ccc(N2CCC(=O)CC2)cc1	79 to 82 °C

For this molecule ( CCOC(=O)C=Cc1c(C#N)cnn1-c1ccc(Cl)c(Cl)c1Cl ), measured melting point is 131 to 134 °C

So for CCCCOc1cc(CNCCN(CC)CC)cc(S(N)(=O)=O)c1Cc1ccccc1 , the logged melting point turned out to be 89 to 93 °C

melting point measured on C[C@H]1Cc2c(Cl)c(Cl)cc3c(=O)c(C(=O)O)cn1c23 = 268 to 270 °C

Field melting point (entry CCOC(=O)c1nc(-c2ccc([N+](=O)[O-])cc2)[nH]c1-c1ccc(OCC)cc1 ) reads 214 to 217 °C

So, CCOC(=O)CONC(=S)Nc1cc(Cl)ccc1C ? Its melting point was 117 to 119 °C

The molecule CCOC(=O)c1ccc(N2Cc3ccccc3C2=O)cc1 showed melting point equal to 182 to 184 °C

So for Cn1c(=O)on(-c2cc(F)ccc2F)c1=O , the logged melting point turned out to be 66 to 68 °C

melting point measured on CCN1c2ncccc2C(=O)Nc2c1nc(N(C)C)c(Br)c2C = 184 to 186 °C

// recorded melting point for O=CC12CC(c3ccccc31)c1ccc(Cl)cc12 (configuration not stated) : 91 to 92 °C
